These measurements were taken from ChEMBL document CHEMBL5537206.

- Test system: MCF7
- ASSAY SUMMARY: Antiproliferative activity against human MCF7 cells incubated for 72 hrs by MTT assay
- Type: functional, cell-based
- CONDITION LABEL: MCF7, 72 h
MEASUREMENT TYPE: IC50 (µM)

1. C=CC(=O)Nc1cccc(Nc2nc(Nc3cnn(C)c3)nc3cc(F)ccc23)c1 11.1
2. C=CC(=O)Nc1cccc(Nc2nc(Nc3ccnn3C)nc3ccc(Cl)cc23)c1 6.89
3. C=CC(=O)Nc1cccc(Nc2nc(Nc3cnn(C(C)(C)C)c3)nc3ccc(Cl)cc23)c1 5.64

---

- System: MCF7
- ASSAY SUMMARY: Antiproliferative activity against human MCF7 cells incubated for 72 hrs by MTT assay
- Type: functional, cell-based
- CONDITION LABEL: MCF7, 72 h
MEASUREMENT TYPE: IC50 (µM)

1. C=CC(=O)Nc1cccc(Nc2nc(Nc3cnn(C)c3)nc3ccc(C(F)(F)F)cc23)c1 18.2
2. C=CC(=O)Nc1cccc(Nc2nc(Nc3cnn(C4CCN(C)CC4)c3)nc3ccc(Cl)cc23)c1 5.26
3. C=CC(=O)Nc1cccc(Nc2nc(Nc3ccn(C)n3)nc3ccc(Cl)cc23)c1 12.4
4. C=CC(=O)Nc1cccc(Nc2nc(Nc3cnn(CCN4CCOCC4)c3)nc3ccc(Cl)cc23)c1 8.78
5. C=CC(=O)Nc1cccc(Nc2nc(Nc3cccc(Br)c3)nc3ccc(Cl)cc23)c1 3.58
6. C=CC(=O)Nc1cccc(Nc2nc(Nc3cnn(C)c3)nc3ccc(C)cc23)c1 1.24
7. C=CC(=O)Nc1cccc(Nc2nc(Nc3cnn(-c4ccccc4)c3)nc3ccc(Cl)cc23)c1 15.2
8. C=CC(=O)Nc1cccc(Nc2nc(Nc3cn(C)nc3C)nc3ccc(Cl)cc23)c1 15
9. C=CC(=O)Nc1cccc(Nc2nc(Nc3cnn(C)c3)nc3ccc(Br)cc23)c1 1.64
